- Tested on: EKVX NSCLC
- test method notes: NCI tumour cell line growth inhibition, 48 h; in the data active means GI50 below about 0.43 µM; inactive means the rest
Labels: Yes for active, No for inactive

molecule	tgt	assigned category
CC(C)COCC(CN(Cc1ccccc1)c1ccccc1)N1CCCC1 (stereo not drawn)	EKVX NSCLC	No
C=C(C)[C@@H]1CC[C@]2(C)[C@H](CC=C3[C@@H]4[C@@H](C)[C@H](C)CC[C@]4(C(N)=O)CC[C@]32C)[C@@]1(C)CCC#N	EKVX NSCLC	No
NCCN.NCCN.O=C([O-])CCl.O=C([O-])CCl.[Co+3].[O-][Cl+3]([O-])([O-])[O-]	EKVX NSCLC	No
O=C(Nc1ccc2[nH]c(=S)sc2c1)Nc1ccccc1F	EKVX NSCLC	No
CN(C)CC1C(=O)O[C@H]2[C@H]1CC/C(COC(=O)c1cc3ccccc3[nH]1)=C\CC[C@@]1(C)O[C@@H]21 (stereo partly drawn)	EKVX NSCLC	No
CC[C@@]1(OC(=O)CN)C(=O)OCc2c1cc1n(c2=O)Cc2cc3c(N)cccc3nc2-1	EKVX NSCLC	Yes
Clc1ccc2nnnn2n1	EKVX NSCLC	No
O=C(c1ccccc1)C(Br)C(Br)c1cccc([N+](=O)[O-])c1 (stereo not drawn)	EKVX NSCLC	No
